Target: UniProt P21453
Experiment: potentiators of S1P1 agonist response, dose response, cell-based, potentiator mode, 60K MLSMR set (AID 466)
Let's look at some compounds and their measured log10 of EC50.
# values: log10(EC50), units µM

Here's what some known entries look like.
compound: Clc1ccc(OCc2nc(-c3ccncc3)no2)c(Br)c1
log10 of EC50: 0.54
//
compound: CC(C)OCCCNc1ncnc2c1[nH]c1ccc(F)cc12
log10 of EC50: 0.74
//
compound: CCOc1ccc(-c2nnc(-c3ccco3)o2)cc1OCC
log10 of EC50: 0.02
//
compound: O=C(Nc1cccc(C(F)(F)F)c1)N1CCC(c2nc(-c3ccc(F)cc3)no2)CC1
log10 of EC50: 0.81
//
compound: Cc1cc(C(=O)Nc2sc(C)c(-c3ccc(F)cc3)c2C(N)=O)no1
log10 of EC50: 0.74

Find the measured log10 of EC50 of CCCCOC(=O)c1[nH]c2c(c1C)C(=O)CC(c1cc(OC)c(OC)c(OC)c1)C2 (stereo not drawn) and report it. 0.70

* * *

Biological target: Sphingosine 1-phosphate receptor 1 (Homo sapiens)
Experiment: potentiators of S1P1 agonist response, dose response, cell-based, potentiator mode, 60K MLSMR set (AID 466)
endpoint: EC50

Reference set (6 entries):
compound: COC(=O)Cc1sc(=O)[nH]c1Nc1ccccc1
endpoint: EC50
reported-result: > 95 µM
--
compound: Clc1ccc(OCc2nnc(SCc3nc4ccccc4[nH]3)n2Cc2ccco2)cc1
endpoint: EC50
reported-result: 9.34 µM
--
compound: CCOC(=O)c1cccc2c1-c1ccccc1C2N=O (stereo not given)
endpoint: EC50
reported-result: 10.2 µM
--
compound: COc1ccccc1N=C(N)Nc1nc(CSc2ccc(C)cc2)cc(=O)[nH]1
endpoint: EC50
reported-result: 9.15 µM
--
compound: O=C(Nc1cccc(C(F)(F)F)c1)C1CCCN1S(=O)(=O)c1cccc2cccnc12 (stereo not given)
endpoint: EC50
reported-result: 5.41 µM
--
compound: CCOc1ccc(S(=O)(=O)n2cnc3cc(C)c(C)cc32)cc1
endpoint: EC50
reported-result: 8.29 µM

Attention now shifts to the item below.
For Sphingosine 1-phosphate receptor 1 (Homo sapiens), give EC50 of the listed compound: Cc1cc(C(=O)CSc2nnnn2C)c(C)n1-c1cccc(F)c1 1.88 µM

* * *

Molecular target: Sphingosine 1-phosphate receptor 1 (Homo sapiens, UniProt P21453)
Sequence (P21453 whole entry): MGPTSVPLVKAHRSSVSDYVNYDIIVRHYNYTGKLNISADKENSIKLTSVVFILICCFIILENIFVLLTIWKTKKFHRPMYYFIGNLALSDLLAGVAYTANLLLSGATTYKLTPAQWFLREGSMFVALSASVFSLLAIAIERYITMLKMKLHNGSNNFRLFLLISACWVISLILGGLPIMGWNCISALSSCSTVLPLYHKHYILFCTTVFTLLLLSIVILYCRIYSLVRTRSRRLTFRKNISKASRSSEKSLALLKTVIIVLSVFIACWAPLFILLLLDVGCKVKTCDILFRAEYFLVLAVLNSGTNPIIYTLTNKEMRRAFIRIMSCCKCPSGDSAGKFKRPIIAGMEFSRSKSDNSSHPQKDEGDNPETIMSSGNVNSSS
Experiment: potentiators of S1P1 agonist response, dose response, cell-based, potentiator mode, 60K MLSMR set (AID 466)
Listed compounds paired with reported EC50
Give your result in µM as a bare value.

The following compounds have reported results that may help.
compound: Cc1nc2ccccc2c2oc(C(=O)NCC3COc4ccccc4O3)cc12 (stereo not given) [MLS000118430]
EC50 / µM: 9.7

compound: Cc1csc(NC(=O)C(Cc2ccccc2)n2cccc2)n1 (stereo not given) [MLS000119019]
EC50 / µM: 2.28

compound: Cc1nn(C(=O)c2cccs2)c(N)c1-c1ccccc1
EC50 / µM: 4.9

# return recorded EC50 for entry Cc1ccccc1-c1noc(-c2ccc(O)cc2)n1 8.25

Hello, please tell me recorded EC50 for this one: Cn1c(=O)oc2cc(S(=O)(=O)N3CCCC(C(=O)N4CC=C(c5ccccc5)CC4)C3)ccc21 (stereo not given) 9.49

Answer with reported EC50 of COc1ccccc1Oc1ccc2c(c1)C(=O)N(c1cccc(O)c1)C2=O 2.14

Return value of EC50 for input CCOc1ccccc1OCCCCCc1c(C)n[nH]c1C [MLS000043342] , no commentary. 1.27

Hello, please tell me recorded EC50 for this one: O=C(Nc1ccc(N2CCCCC2)c(Cl)c1)c1nnc[nH]1 0.879

Query EC50 for Clc1ccc(-n2nnnc2Sc2ncnc3sccc23)cc1 [SMR000066808] 5.29

Output EC50 of COc1ccc(-c2noc(-c3ccccc3F)n2)cc1 6.17

Read off the recorded EC50 for CCc1ccc(-c2nc(-c3ccncc3)no2)cc1 4.41

State its EC50 for this compound: CCCc1cc(C(=O)N2CCN(C(c3ccccc3)c3ccccc3)CC2)no1 5.97

Give the measured EC50 for CCOc1ccc(-c2noc(-c3cccnc3)n2)cc1OC 0.77

Supply reported EC50 belonging to this compound: COc1cccc(N2CCN(c3ncnc4c3[nH]c3ccccc34)CC2C)c1 (stereo not given) 3.57

Complete the entry with EC50 for C=CCN1/C(=N/c2cccnc2)SCC1(O)c1ccc(C)cc1 (stereo not given) 7.92

Recall and state the measured EC50 for CCC(NCCOc1ccc(Cl)cc1)=C1C(=O)N(C)C(=O)N(C)C1=O . 5.34

* * *

Target: UniProt P21453
Test: potentiators of S1P1 agonist response, dose response, cell-based, potentiator mode, 60K MLSMR set (AID 466)
endpoint: pEC50
Recall that pEC50 is obtained by taking minus log10 of the concentration measured in molar.

Specify pEC50 for COc1ccc(-c2nc(-c3ccc(NC(=O)c4ccncc4)cc3)no2)cc1OC and stop. 6.16

Name the recorded pEC50 of the item CC(C)Oc1cc(O)c2c(=O)c(-c3ccc(O)cc3)coc2c1 in your answer. 5.56

Tell me measured pEC50 for CCC(NC(C)c1ccccc1)=C1C(=O)N(C)C(=O)N(C)C1=O (configuration not stated) please. 4.84

Supply pEC50 value. Item: O=C(Nc1ccc(N2CCOCC2)c(Cl)c1)c1cccc(F)c1 6.03

Output measured pEC50 for this item: Cc1nnc2ccc(Oc3ccc(-c4ccccc4)cc3)nn12 5.27

* * *

Molecular target: Sphingosine 1-phosphate receptor 1 (Homo sapiens)
Assay: potentiators of S1P1 agonist response, dose response, cell-based, potentiator mode, 60K MLSMR set (AID 466)
pEC50: −log10 of the molar value.
Short version: pEC50 at least 5 is yes, less is no.

Study these solved cases before continuing.
molecule: CCn1c(NC(=O)c2cccc(Cn3cc(Cl)cn3)c2)nc2ccccc21
class-label: no

molecule: O=C(CSc1nnc(Cn2nnc3ccccc32)o1)N(Cc1ccc(F)cc1)c1ccccc1
class-label: yes

# check: pEC50 of Cc1cc(C(=O)CSc2nnc(-c3ccccc3)n2-c2ccccc2)c(C)n1-c1nnc[nH]1 is greater than or equal to 5 yes

Would you say Oc1c(Cl)cc(Cl)cc1Sc1cc(Cl)cc(Cl)c1O shows pEC50 at minimum 5? yes

Form field: pEC50 at least 5? Entry: NC(=Nc1nc2c(c(=O)[nH]1)CCCC2)Nc1ccccc1 [MLS000078734] yes

Could you tell me if the measured pEC50 of Cc1[nH]nc2c1C1(C(=O)N(Cc3ccc(Cl)cc3)c3ccccc31)C(C#N)C(=N)O2 (centres undefined) reaches 5 or more? no

Decide: is the reported value of pEC50 for COc1ccccc1Oc1ccc2c(c1)C(=O)N(c1ccc(O)cc1)C2=O equal to or greater than 5? yes

* * *

Collected pEC50 values appear next to each entry.
Target: Sphingosine 1-phosphate receptor 1 (Homo sapiens)
Assay: potentiators of S1P1 agonist response, dose response, cell-based, potentiator mode, 60K MLSMR set (AID 466)
Conditions: inactive by the depositor's call
Convention used: pEC50 is expressed as -log10 of the molar concentration.

compound: Cn1nc(CC(=O)Nc2ccc(N3CCN(C(=O)OC(C)(C)C)CC3)cc2)c2ccccc2c1=O
endpoint: pEC50
reported-result: 4.84

Check the records and state pEC50 for CCOc1ccccc1COC(=O)c1cccc(-n2cnnn2)c1 4.59

Answer with the recorded pEC50 of Cc1cccc(N2CCN(C(=O)C3CCCN(S(=O)(=O)c4cccc5cccnc45)C3)CC2)c1C (stereo not drawn) only. 4.79

* * *

Target: Sphingosine 1-phosphate receptor 1 (Homo sapiens)
Assay: potentiators of S1P1 agonist response, dose response, cell-based, potentiator mode, 60K MLSMR set (AID 466)
Sorting guide: entries reporting EC50 beneath 5 µM go in the met pile, the rest go in the not met pile.

Illustrative cases are given below, each with its answer.
molecule: COc1ccc2[nH]c(=O)c3c(c2c1)OC(C)(C)C=C3
system: Sphingosine 1-phosphate receptor 1 (Homo sapiens)
class-label: not met
//
molecule: CCN(CC)c1ccc2cc(NC(=O)CCC(=O)O)c(=O)oc2c1
system: Sphingosine 1-phosphate receptor 1 (Homo sapiens)
class-label: not met
//
molecule: COc1ccccc1OCc1nc(C#N)c(N2CC(C)CC(C)C2)o1 (centres undefined)
system: Sphingosine 1-phosphate receptor 1 (Homo sapiens)
class-label: met

Lab log: compare recorded EC50 with 5 µM; is it strictly lower for Cc1cc(C)cc(-c2nc(-c3ccncc3)no2)c1 ? met

Please check: EC50 for Cc1ccc(-n2c(C)cc(C(=O)COC(=O)c3c(C)noc3C)c2C)cc1 , strictly under 5 µM or not? not met

Is 5 µM strictly greater than the molecule's reported EC50? molecule: N#Cc1nc(COc2ccc(Cl)cc2Cl)oc1N1CCN(c2ccccc2)CC1 not met

Dear colleague, could you confirm whether EC50 of O=C(CSc1nnc(-c2cc3ccccc3cc2O)n1Cc1ccco1)c1ccc(F)cc1 falls below 5 µM? Thanks. not met

Field: below-cutoff. Rule: recorded EC50 strictly less than 5 µM. Subject: CCn1c(-c2cccc(Cl)c2)n[nH]c1=S [SMR000104244] not met

EC50 under 5 µM? Item: Cc1cc(C=Nn2cnnc2)c(C)n1-c1ccc(OCc2ccccc2F)cc1 [MLS000112180] met

Consider the molecule CCCCOc1ncnc2c1[nH]c1ccccc12 [MLS000041483] . Is its EC50 strictly less than 5 µM? met
